# ASSAYED_TARGET: glutathione S-transferase (GST)-fused full-length human Syk protein (Homo sapiens)
# Construct: (GST)-fused full-length human Syk protein; GST (glutathione S-transferase); purchased Carna Biosciences
# MEASUREMENT_PROTOCOL: Syk enzyme assay
# Assay type: biochemical
# STATED_CONDITIONS: Syk enzyme assay, Test Example 1; read-out: IC50 of Syk-inhibitory activity
pIC50: −log10 of the molar value.
Catalogue of pIC50 readings, one per entry.

Examples with their reported pIC50 follow.
• CC(=O)Nc1cccc2cc(Nc3nc(N[C@H](Cc4ccccc4)C(N)=O)c(F)cc3C(N)=O)cnc12 [Example 004-047] = 7.30 to 8.00
• CC(=O)Nc1cc(Nc2nc(N[C@@H]3CCCC[C@@H]3N)c(F)cc2C(N)=O)ccn1 (relative stereo) [Example 004-048] = 7.30 to 8.00
• NC(=O)c1cc(F)c(N[C@@H]2CCCC[C@@H]2N)nc1Nc1cncc(-c2cccc([N+](=O)[O-])c2)c1 (relative stereo) [Example 004-215] = > 8.00
• CC(C)C[C@@H](Nc1nc(Nc2ccc3ncsc3c2)c(C(N)=O)cc1F)C(N)=O [Example 012-005] = 7.30 to 8.00
• COc1cccc(-c2cncc(Nc3nc(N[C@@H]4CCCC[C@@H]4N)c(F)cc3C(N)=O)c2)c1F (relative stereo) [Example 004-197] = > 8.00
• CCc1nn(CC)c2ccc(Nc3nc(N[C@H](CC4CC4)[C@H](C)N)c(F)cc3C(N)=O)cc12 [Example 006-506] = > 8.00

Write pIC50 of C[C@H](N)[C@@H](C)Nc1nc(Nc2cccc(-n3nccn3)c2)c(C(N)=O)cc1F (racemic) [Example 006-111] ; system used: glutathione S-transferase (GST)-fused full-length human Syk protein (Homo sapiens) > 8.00

Write pIC50 of NC(=O)c1cc(F)c(NC2CCCCC2N)nc1Nc1cnc2oc3ccccc3c2c1 (centres unmarked) [Example 002-195] ; system used: glutathione S-transferase (GST)-fused full-length human Syk protein (Homo sapiens) > 8.00
